B1: Lysozyme C, P61626 (parent)
chain: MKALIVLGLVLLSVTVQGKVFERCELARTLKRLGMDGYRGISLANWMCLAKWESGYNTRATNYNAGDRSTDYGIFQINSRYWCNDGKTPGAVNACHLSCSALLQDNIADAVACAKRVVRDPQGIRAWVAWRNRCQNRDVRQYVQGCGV

Variants of: B1
Condition: Homo sapiens; pH 3; 25 °C; GdnHCl; CD; glycine-HCl 40 mM; reversible: yes (100%); structure 1LZ1; whole UniProt chain shown
Observable: denaturant m value (kcal/mol/M)
// return numeric value only (unit: kcal/mol/M, not printed)

Some solved cases for reference:
V128P :: 6.69
A65P :: 5.5

Supply recorded denaturant m value for P121G here.
5.55

Supply recorded denaturant m value for P89G here.
5.43

Supply recorded denaturant m value for P89G P121G here.
5.48

Supply recorded denaturant m value for D109P here.
5.42
